# Assay: Binding affinity to HSP90-alpha T184G mutant (unknown origin) expressed in Escherichia coli BL21 by SPR assay
# Design: species or system Homo sapiens
Property: Kd (µM)
Express your answer in µM, writing the number without its unit.

Looking up CC(C)(C)c1ccc(Cn2cc(-c3cc(O)c(O)c(O)c3)nn2)cc1 , I see its Kd listed as 81.4

###

Heads up, these compounds all have Kd values measured for Heat shock protein HSP 90-alpha (Homo sapiens, UniProt P07900).
Express your answer in µM, writing the number without its unit.

Illustrative cases are given below, each with its answer.
{"Compound structure string": "CC(C)(C)c1ccc(Cn2cc(-c3cc(O)c(O)c(O)c3)nn2)cc1", "Result unit": "µM", "Kd": 0.063}
{"Compound structure string": "COc1ccc(-c2cn(Cc3cc(C(F)(F)F)cc(C(F)(F)F)c3)nn2)cc1", "Result unit": "µM", "Kd": 3.1}

Note: attention shifts to another entry.
Looking up COc1ccc(-c2cn(Cc3ccc(C(C)(C)C)cc3)nn2)cc1 , I see its Kd listed as 4.8
